Biological target: T1, recombinant biotinylated CD71 extracellular domain (Sino Biologics) with an N-terminal 6His tag (human, UniProt P02786 89-760, biotinylated (sites not given))
T1 construct: extracellular domain; also called hCD71; huCD71
T1 sequence (P02786 other isoform, or with tags, fused parts or gaps): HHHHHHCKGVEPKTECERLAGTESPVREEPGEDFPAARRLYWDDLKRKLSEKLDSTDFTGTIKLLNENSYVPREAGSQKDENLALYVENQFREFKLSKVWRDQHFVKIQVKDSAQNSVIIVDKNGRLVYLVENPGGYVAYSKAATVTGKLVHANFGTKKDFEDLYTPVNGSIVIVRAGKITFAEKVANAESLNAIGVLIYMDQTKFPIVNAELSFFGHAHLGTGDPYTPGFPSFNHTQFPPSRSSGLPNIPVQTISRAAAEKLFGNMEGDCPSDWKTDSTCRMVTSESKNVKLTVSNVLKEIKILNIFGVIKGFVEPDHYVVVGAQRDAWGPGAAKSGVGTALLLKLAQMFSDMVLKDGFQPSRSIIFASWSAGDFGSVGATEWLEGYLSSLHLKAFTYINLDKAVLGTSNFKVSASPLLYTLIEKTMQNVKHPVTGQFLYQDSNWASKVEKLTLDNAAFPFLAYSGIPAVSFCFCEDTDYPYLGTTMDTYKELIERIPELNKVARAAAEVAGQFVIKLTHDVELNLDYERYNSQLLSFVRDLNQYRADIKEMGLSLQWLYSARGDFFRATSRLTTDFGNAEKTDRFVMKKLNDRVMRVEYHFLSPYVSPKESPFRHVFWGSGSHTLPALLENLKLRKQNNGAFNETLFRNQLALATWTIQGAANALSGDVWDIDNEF
Test: screening ELISA
measured_quantity: hCD71
One number for each entry.

Would you please look over these solved cases?
| binder | reported_result |
| --- | --- |
| SEQ ID NO 101 (designed binder, FN3 domain) MLPAPKNLVVSRVTEDSARLSWTAPDAAFDSFAIDYDEPINSGEAIVLTVPGSERSYDLTGPKPGTEYEVEIYGVKGGYLSRPLSAIFTT | 1.97e+06 |
| SEQ ID NO 215 (designed binder, FN3 domain) MLPAPKNLVVSRVTEDSARLSWTAPDAAFDSFLIPYAETSPTGEAIVLTVPGSERSYDLTGLKPGTEYSVLIHGVKGGYPSSPLSAIFTT | 2.13e+06 |
| SEQ ID NO 232 (designed binder, FN3 domain) MLPAPKNLVVSRVTEDSARLSWTAPDAAFDSFTIAYDETLNLGEAIVLTVPGSERSYDLTGLKPGTEYIVGIFGVKGGTHSWPLSAIFTT | 1.7e+06 |
| SEQ ID NO 239 (designed binder, FN3 domain) MLPAPKNLVVSRVTEDSARLSWTAPDAAFDSFAITYYEGRWRGEAIVLTVPGSERSYDLTGLKPGTEYGVPIRGVKGGTGSLPLSAIFTT | 419000 |
| SEQ ID NO 174 (designed binder, FN3 domain) MLPAPKNLVVSRVTEDSARLSWTAPDAAFDSFFIGYLEPQPPGEAIVLTVPGSERSYDLTGLKPGTEYKVVIQGVKGGTPSEPLSAIFTT | 2.42e+06 |
| SEQ ID NO 100 (designed binder, FN3 domain) MLPAPKNLVVSRVTEDSARLSWTAPDAAFDSFWIEYWEVVGFGEAIVLTVPGSERSYDLTGLKPGTEYWVGIYGVKGGNPSVPLSAIFTT | 2.95e+06 |
| SEQ ID NO 138 (designed binder, FN3 domain) MLPAPKNLVVSRVTEDSARLSWTAPDAAFDSFFIKYIEWWADGEAIVLTVPGSERSYDLTGLKPGTEYLVEIYGVKGGRQSYPLSAIFTT | 4.18e+06 |
| SEQ ID NO 268 (designed binder, FN3 domain) MLPAPKNLVVSRVTEDSARLSWTAPDAAFDSFTIVYGEAGAFGEAIVLTVPGSERSYDLTGLKPGTEYDVLIEGVKGGNLSWPLSAIFTT | 1.6e+06 |

State the recorded hCD71 for every item in the following list.
1. SEQ ID NO 158 (designed binder, FN3 domain) MLPAPKNLVVSRVTEDSARLSWTAPDAAFDSFIIDYLELDDYGEAIVLTVPGSERSYDLTGLKPGTEYPVYIYGVKGGLPSTPLSAIFTT
2. SEQ ID NO 250 (designed binder, FN3 domain) MLPAPKNLVVSRVTEDSARLSWTAPDAAFDSFFIGYLEPYPPGEAIVLTVPGSERSYDLTGLKPGTEYAVEIAGVKGGLLSSPLSAISTT
3. SEQ ID NO 216 (designed binder, FN3 domain) MLPAPKNLVVSRVTEDSARLSWTAPDAAFDSFPIAYAEPTPSGEAIVLTVPGSERSYDLTGLKPGTEYSVLIHGVKGGGLSLPLSAIFTT
4. SEQ ID NO 110 (designed binder, FN3 domain) MLPAPKNLVVSRVTEDSARLSWTAPDAAFDSFFIHYHEWWEAGEAIVLTVPGSERSYDLTGLKPGTEYLVDIPGVKGGDLSVPLSAIFTT
5. SEQ ID NO 235 (designed binder, FN3 domain) MLPAPKNLVVSRVTEDSARLSWTAPDAAFDSFSINYREWWSDGEAIYLPVPGSERSYDLTGLKPGTEYAVYIQGVKGGSRSFPLHAWFTT
6. SEQ ID NO 242 (designed binder, FN3 domain) MLPAPKNLVVSRVTEDSARLSWTAPDAAFDSFPIKYLEWWSWGEAIVLTVPGSERSYDLTGLKPGTEYRVPISGVKGGGMSGPLSAIFTT

1: 2.06e+06; 2: 1.09e+06; 3: 2.19e+06; 4: 1.68e+06; 5: 3.92e+06; 6: 872000

State the recorded hCD71 for every item in the following list.
1. SEQ ID NO 229 (designed binder, FN3 domain) MLPAPKNLVVSRVTEDSARLSWTAPDAAFDSFSIHYDEDWRRGEAIVLTVPGSERSYDLTGLKPGTEYLVEIPGVKGGKASYPLSAIFTT
2. SEQ ID NO 198 (designed binder, FN3 domain) MLPAPKNLVVSRVTEDSARLSWTAPDAAFDSFLIAYNEDRKFGEAIVLTVPGSERSYDLTGLKPGTEYDVWIEGVKGGSLSFPLSAIFTT
3. SEQ ID NO 212 (designed binder, FN3 domain) MLPAPKNLVVSRVTEDSARLSWTAPDAAFDSFIIEYWEQIGVGEAIVLTVPGSERSYDLTGLKPGTEYWVGIYGVKGGLLSSPLSAIFTT
4. SEQ ID NO 259 (designed binder, FN3 domain) MLPAPKNLVVSRVTEDSARLSWTAPDAAFDSFTIEYFEFVDAGEAIVLTVPGSERSYDLTGLKPGTEYWVEIWGVKGGSWSKPLSAIFTT

1: 570000; 2: 3.44e+06; 3: 2.49e+06; 4: 2.44e+06
